biological target: human melanocortin-4 receptor (human) (UniProt P32245); test: [I125]-NDP-α-MSH competition, hMC4-R HEK-293 membranes
Sequence (P32245 whole entry): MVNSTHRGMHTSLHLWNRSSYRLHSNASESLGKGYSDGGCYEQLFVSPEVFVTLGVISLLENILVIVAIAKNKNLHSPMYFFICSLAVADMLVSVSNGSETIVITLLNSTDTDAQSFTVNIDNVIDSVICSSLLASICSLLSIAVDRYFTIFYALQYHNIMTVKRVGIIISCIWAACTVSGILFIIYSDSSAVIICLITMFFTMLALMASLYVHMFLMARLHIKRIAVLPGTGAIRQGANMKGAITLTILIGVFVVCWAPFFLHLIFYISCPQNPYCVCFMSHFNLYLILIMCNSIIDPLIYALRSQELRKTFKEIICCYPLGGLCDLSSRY
Property measured: pKi
In plain terms, pKi is the concentration in mol/L turned into minus its base-10 logarithm.

Ask: What does the record list as pKi for Ac-Arg-cyclo(Glu-Dab-D-Tyr-Arg-Trp-Orn)-NH2 (peptide) ?
Reply: 7.12
